Biological target: GOPC, Q9HD26
Assay: holdup assay
Design: key: below the threshold = too weak to quantify, mostly under pKd 3.1 to 4
Conditions: plain residues with an end cap or a label only (N-terminal biotin on a linker: ttds)
measuredEndpoint: pKd

Example results:
[
  {
    "binder": "PVRVCEETSL [OTULIN, Q96BN8]",
    "pKd": 4.44
  },
  {
    "binder": "RLPKIKETTV [FRMPD4, Q14CM0]",
    "pKd": 3.83
  },
  {
    "binder": "NDPAWDETNL [ARHGEF7, Q14155;Q14155-1]",
    "pKd": 4.13
  }
]

Please turn your attention to the following entry.
Provide one value: measured pKd of EMDRRPATVV [PLCB4, Q15147]
4.04
